target or system: FL hMALT1 enzyme (Homo sapiens, UniProt Q9UDY8)
assay protocol: biochemical
pIC50: −log10 of the molar value.
experimental readout: pIC50

Solved entries:
CN(C(=O)C1CCS(=O)(=O)C1)[C@@H](c1ccc(NC2Cc3ccc(Cl)c(Cl)c3C2)cn1)C(F)(F)F (single isomer, unassigned) [Example 357] = 6.16
CN(C(=O)[C@H]1CCC(=O)NC1)[C@@H](c1ccc(NC2Cc3ccc(Cl)c(F)c3C2)cn1)C(F)(F)F (single isomer, unassigned) [Example 336] = 6.16
CN(C(=O)C1CCS(=O)(=O)CC1)[C@@H](c1ccc(NC2Cc3ccc(OC(F)F)cc3C2)cn1)C(F)(F)F (stereo partly drawn) = 6.00

(1) CN(C(=O)CN1CCNC1=O)[C@@H](c1ccc(NC2Cc3ccccc3C2(C)C)cn1)C(F)(F)F (single isomer, unassigned) [Example 245]
(2) CN(C(=O)C1CN(C(=O)C2CCOC2)C1)[C@@H](c1ccc(NC2Cc3ccc(Cl)c(Cl)c3C2)cn1)C(F)(F)F (single isomer, unassigned) [Example 352]
(3) COCCC(=O)N(C)[C@@H](c1ccc(NC2Cc3ccccc3C2(C)C)cc1)C(F)(F)F (single isomer, unassigned) [Example 33]
(4) CN(C(=O)C1CN(C(=O)CO)C1)[C@@H](c1ccc(NC2Cc3ccc(Cl)c(Cl)c3C2)cn1)C(F)(F)F (single isomer, unassigned) [Example 378]
[ask] Hey, can you sort those molecules up there by pIC50, smallest first? Your answer should be the labels, listed in the requested order.
[reply] 4, 3, 1, 2
(4: 5.89, 3: 6.59, 1: 6.89, 2: 7.34)

(a) CN(C(=O)CCN1CCCC1=O)[C@@H](c1ccc(NC2Cc3ccccc3C2(C)C)cc1)C(F)(F)F (single isomer, unassigned) [Example 47]
(b) CN(C(=O)C1CC2(CCC(=O)N2)C1)[C@@H](c1ccc(NC2Cc3ccccc3C2(C)C)cn1)C(F)(F)F (single isomer, unassigned) [Example 230]
[ask] Please tell me which of the two, a or b , has the higher reported pIC50 value. I would appreciate it if you answered with the label of your choice.
[reply] b
(b: 7.42, a: 6.96)

(I) CC(=O)N1CC(C(=O)N(C)[C@@H](c2ccc(NC3Cc4ccccc4C3(C)C)cc2)C(F)(F)F)C1 (single isomer, unassigned) [Example 7]
(II) CN(C(=O)CN1CCCS1(=O)=O)[C@@H](c1ccc(NC2Cc3ccc(Cl)c(F)c3C2)cn1)C(F)(F)F (single isomer, unassigned) [Example 362]
(III) CN(C(=O)C1CN(C(=O)C2CCOC2)C1)[C@@H](c1ccc(NC2Cc3ccc(Cl)c(Cl)c3C2)cn1)C(F)(F)F (single isomer, unassigned) [Example 353]
[ask] Order these by pIC50, descending, and give the full ranking. Your answer should be the labels, listed in the requested order.
[reply] III, I, II

###

target or system: FL hMALT1 enzyme (Homo sapiens, UniProt Q9UDY8)
assay protocol: biochemical
Structures can show the parent of a compound that is named as a salt.
experimental readout: IC50 (nM)

(a) CN(C(=O)CC#N)[C@@H](c1ccc(NC2Cc3ccc(Cl)c(Cl)c3C2)cn1)C(F)(F)F (single isomer, unassigned) [Example 350]
(b) CN(C(=O)C1CCS(=O)(=O)C1)[C@@H](c1ccc(NC2Cc3ccc(Cl)c(Cl)c3C2)cn1)C(F)(F)F (single isomer, unassigned) [Example 359]
[ask] Please tell me which of the two, a or b , has the higher reported IC50 value. I would appreciate it if you answered with the label of your choice.
[reply] b
(b: 480 nM, a: 61 nM)

(P) CN(C(=O)[C@@H]1CC(=O)N1)[C@@H](c1ccc(N[C@H]2Cc3ccccc3C2(C)C)cn1)C(F)(F)F [Example 165]
(Q) CN(C(=O)C1CNC1)[C@@H](c1ccc(NC2Cc3ccccc3C2(C)C)cc1)C(F)(F)F (stereo partly drawn) [Example 72, Hydrochloride]
[ask] Please tell me which of the two, P or Q , has the higher reported IC50 value. I would appreciate it if you answered with the label of your choice.
[reply] Q

###

target or system: UniProt:Q9UDY8
assay protocol: biochemical
experimental readout: IC50 (nM)

CN(C(=O)C1CNC(=O)O1)[C@@H](c1ccc(N[C@@H]2Cc3ccccc3C2(C)C)cn1)C(F)(F)F (single isomer, unassigned) [Example 111] = 52

(1) CN(C(=O)C1CCNC(=O)C1)[C@@H](c1ccc(NC2Cc3ccccc3C2(C)C)cn1)C(F)(F)F (single isomer, unassigned) [Example 117]
(2) CN(C(=O)[C@H]1C[C@H](O)C1)[C@@H](c1ccc(NC2Cc3ccc(Cl)c(F)c3C2)cn1)C(F)(F)F (single isomer, unassigned) [Example 374]
[ask] Between 1 and 2 , which one shows the smaller IC50 number? I would appreciate it if you answered with the label of your choice.
[reply] 2

###

target or system: FL hMALT1 enzyme (Homo sapiens, UniProt Q9UDY8)
assay protocol: biochemical
pIC50: −log10 of the molar value.
experimental readout: pIC50

Solved entries:
CNC(=O)C12CC(C(=O)N(C)[C@@H](c3ccc(N[C@H]4Cc5ccccc5C4(C)C)cn3)C(F)(F)F)(C1)C2 = 7.38
CC(=O)N1CCC12CC(C(=O)N(C)[C@@H](c1ccc(NC3Cc4ccccc4C3(C)C)cn1)C(F)(F)F)C2 (single isomer, unassigned) [Example 236] = 6.68
CN(C(=O)C1CN(C(=O)C2COC2)C1)[C@@H](c1ccc(NC2Cc3ccc(Cl)c(F)c3C2)cn1)C(F)(F)F (single isomer, unassigned) [Example 370] = 5.86
CN1CC(C(=O)N(C)C(c2ccc(NC3Cc4ccccc4C3(C)C)nc2)C(F)(F)F)C1 (single isomer, unassigned) [Example 93] = 6.16
CN1CCCC(C(=O)N(C)[C@@H](c2ccc(NC3Cc4ccccc4C3(C)C)cn2)C(F)(F)F)C1 (single isomer, unassigned) [Example 129] = 6.68

(P) CN(C(=O)C1CCS(=O)(=O)CC1)[C@@H](c1ccc(NC2Cc3cc(Cl)ccc3C2(C)C)cc1)C(F)(F)F (single isomer, unassigned) [Example 152]
(Q) CN(C(=O)C1CNC(=O)O1)[C@@H](c1ccc(N[C@@H]2Cc3ccccc3C2(C)C)cn1)C(F)(F)F (single isomer, unassigned) [Example 108]
[ask] Between P and Q , which one shows the smaller pIC50 number? I would appreciate it if you answered with the label of your choice.
[reply] P

(I) CN(C(=O)[C@H]1C[C@H](N(C)C)C1)[C@@H](c1ccc(NC2Cc3ccccc3C2(C)C)nc1)C(F)(F)F (single isomer, unassigned) [Example 115]
(II) CN(C(=O)C1CCS(=O)(=O)CC1)[C@@H](c1ccc(NC2Cc3ccc(Br)cc3C2)cn1)C(F)(F)F (single isomer, unassigned) [Example 284]
(III) CN1CCC(C(=O)N(C)[C@@H](c2ccc(N[C@H]3Cc4ccccc4C3(C)C)cn2)C(F)(F)F)CC1=O (single isomer, unassigned) [Example 251]
[ask] Order these by pIC50, descending, and give the full ranking. Your answer should be the labels, listed in the requested order.
[reply] III, II, I

###

target or system: FL hMALT1 enzyme (Homo sapiens)
assay protocol: biochemical
experimental readout: IC50 (nM)

CN(C(=O)C1CS(=O)(=O)C1)[C@@H](c1ccc(NC2Cc3ccc(Cl)c(Cl)c3C2)cn1)C(F)(F)F (stereo partly drawn) = 150
CC1(C)c2ccccc2CC1Nc1ccc([C@H](NC(=O)C2CCS(=O)(=O)CC2)C(F)(F)F)cc1 (single isomer, unassigned) [Example 81] = 800
CNC(=O)N1CCC12CC(C(=O)N(C)[C@@H](c1ccc(NC3Cc4ccccc4C3(C)C)cn1)C(F)(F)F)C2 (single isomer, unassigned) [Example 238] = 470
CN(C(=O)C1C2CS(=O)(=O)CC21)[C@@H](c1ccc(NC2Cc3ccccc3C2(C)C)cn1)C(F)(F)F (single isomer, unassigned) [Example 217] = 170

(a) CN(C(=O)N1CCS(=O)(=O)CC1)[C@@H](c1ccc(NC2Cc3ccccc3C2(C)C)cc1)C(F)(F)F (single isomer, unassigned) [Example 14]
(b) CNC(=O)N1CC(C(=O)N(C)[C@@H](c2ccc(NC3Cc4ccc(Cl)c(Cl)c4C3)cn2)C(F)(F)F)C1 (single isomer, unassigned) [Example 335]
[ask] Between a and b , which one shows the smaller IC50 number? I would appreciate it if you answered with the label of your choice.
[reply] b
(b: 14 nM, a: 110 nM)

###

target or system: FL hMALT1 enzyme (Homo sapiens, UniProt Q9UDY8);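 also: Cell-free protease assay: enzyme preincubated with compound 30 min at room temperature, then cleavage of fluorogenic Ac-LVSR-AMC substrate (100 µM) tracked by fluorescence (ex 360/em 460 nm)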
Sequence (Q9UDY8 1-824): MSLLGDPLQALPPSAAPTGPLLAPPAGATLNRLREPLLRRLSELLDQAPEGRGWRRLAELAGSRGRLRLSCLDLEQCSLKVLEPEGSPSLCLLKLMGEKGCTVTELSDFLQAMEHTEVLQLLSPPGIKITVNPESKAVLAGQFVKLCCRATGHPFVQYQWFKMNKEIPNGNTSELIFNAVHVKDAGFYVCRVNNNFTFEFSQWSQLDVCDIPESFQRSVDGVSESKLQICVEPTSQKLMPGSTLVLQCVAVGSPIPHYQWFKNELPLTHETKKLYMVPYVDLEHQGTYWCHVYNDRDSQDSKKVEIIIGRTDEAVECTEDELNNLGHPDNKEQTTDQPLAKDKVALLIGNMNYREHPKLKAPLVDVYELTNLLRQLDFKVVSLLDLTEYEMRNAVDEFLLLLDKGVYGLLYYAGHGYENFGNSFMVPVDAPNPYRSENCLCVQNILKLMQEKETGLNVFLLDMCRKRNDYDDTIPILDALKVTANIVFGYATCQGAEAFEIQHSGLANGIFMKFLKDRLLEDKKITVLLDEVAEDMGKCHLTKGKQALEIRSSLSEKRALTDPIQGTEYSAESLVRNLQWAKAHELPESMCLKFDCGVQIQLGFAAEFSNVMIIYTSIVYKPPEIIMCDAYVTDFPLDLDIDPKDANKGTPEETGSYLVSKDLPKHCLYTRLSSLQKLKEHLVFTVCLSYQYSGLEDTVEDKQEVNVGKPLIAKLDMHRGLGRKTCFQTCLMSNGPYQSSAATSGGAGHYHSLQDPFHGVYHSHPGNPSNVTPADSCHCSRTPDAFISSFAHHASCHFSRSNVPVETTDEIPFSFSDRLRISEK
assay protocol: biochemical
pIC50: −log10 of the molar value.
experimental readout: pIC50

CN(C(=O)C12CC(NS(C)(=O)=O)(C1)C2)[C@@H](c1ccc(NC2Cc3ccc(Cl)c(Cl)c3C2)cn1)C(F)(F)F (single isomer, unassigned) [Example 322] = 6.51

(P) CN(C(=O)C1CCS(=O)(=O)CC1)[C@@H](c1ccc(NC2Cc3ccccc3C2(C)C)cc1)C(F)(F)F (single isomer, unassigned) [Example 1]
(Q) CN1CCC(C(=O)N(C)[C@@H](c2ccc(NC3Cc4ccccc4C3(C)C)cn2)C(F)(F)F)CC1 (single isomer, unassigned) [Example 133]
[ask] Between P and Q , which one shows the smaller pIC50 number? I would appreciate it if you answered with the label of your choice.
[reply] Q
(Q: 6.82, P: 8.15)

(A) CC(=O)N1CC(C)(C(=O)N(C)[C@@H](c2ccc(NC3Cc4ccccc4C3(C)C)cc2)C(F)(F)F)C1 (single isomer, unassigned) [Example 41]
(B) CN(C(=O)[C@H]1C[C@@]2(COC(=O)N2)C1)[C@@H](c1ccc(NC2Cc3ccccc3C2(C)C)cn1)C(F)(F)F (single isomer, unassigned) [Example 207]
[ask] Please tell me which of the two, A or B , has the higher reported pIC50 value. I would appreciate it if you answered with the label of your choice.
[reply] A
(A: 7.72, B: 6.92)
